# Tested on: MOLM-13
# EXPERIMENTAL DETAILS: Antiproliferative activity against human MOLM-13 cells assessed as inhibition of cell growth incubated for 7 days by MTS reagent based assay
# Type: functional
# TEST CONDITIONS: MOLM-13, 168 h
pIC50: −log10 of the molar value.
PROPERTY MEASURED: pIC50

• COc1cc(-c2cn(C)c(=O)c3ccccc23)cc(OC)c1CN1CCC(CN2CCC(c3ccc4c5c(cccc35)C(=O)N4C3CCC(=O)NC3=O)CC2)CC1 (stereo not drawn) = 9.43
• CCn1cc(-c2cccc(C(F)(F)F)c2)c2sc(C(=N)NC3CCS(=O)(=O)CC3)cc2c1=O = 5.91
• COc1cc(-c2cn(C)c(=O)c(C)c2C)cc(OC)c1CN1CC[C@H](N2CCN(c3ccc(N[C@H]4CCC(=O)NC4=O)cc3F)CC2)C(F)(F)C1 (racemic) = 7.22
